Test system: M14 melanoma
Test: NCI-60 one-dose screen, 48 h (100 = growth as untreated, 0 = no growth, -100 = all killed)
Conditions: 10 µM unless noted
Compounds without any hit were thinned out: in the full panel of roughly 83,000, 20% have a hit.
Everything with growth lower than 90% is NO; everything else, including exactly 90%, is YES.

>>> print(df.to_string())
                                   compound   system_name  answer_label
0  CC(=O)OC1CC2C3CCC4C[C@@H](NC(=O)C=C(C)C)CC[C@]4(C)C3CC[C@]2(C)[C@H]1C(C)N(C)C (some centres not stated)  M14 melanoma            NO
1         CCOC(=O)CNS(=O)(=O)CC(=O)c1ccccc1  M14 melanoma           YES
2  N#Cc1ccc(OCc2nc(N)nc(N)c2-c2ccc(Cl)c(Cl)c2)cc1  M14 melanoma            NO
3                       O=C(O)c1occ(Cl)c1Cl  M14 melanoma           YES
4  NC(=O)CC(NC(=O)COc1ccc(Cl)cc1Cl)C(=O)O (configuration not stated)  M14 melanoma           YES
5  O=C1Nc2ccccc2/C1=C/c1cn(CC(O)Cn2cc(/C=C3\C(=O)Nc4ccccc43)c3ccccc32)c2ccccc12 (configuration not stated)  M14 melanoma            NO
6  O=C(Nc1ccc(-n2cc(-c3ccncc3)c(-c3ccc(Cl)c(O)c3)n2)cc1)Nc1cc(C(F)(F)F)cc(C(F)(F)F)c1  M14 melanoma            NO

###

System: ACHN renal
Assay: NCI-60 one-dose screen, 48 h
Conditions: 10 µM unless noted
Description: Growth inhibition of the ACHN human tumor cell line is measured as a screen for anti-cancer activity. Cells are grown in 96 well plates and exposed to the test compound for 48 hours. Compounds are tested at a single concentration, which is 10^-5 M for most compounds. The reported endpoint is percent growth (GI% or GIPRCNT), where numbers from 0 - 100% represent growth inhibition, and numbers from -100% - 0 represent cell death. For example, a value of 40 represents 60% growth inhibition. […]
About 83,000 compounds went through this panel and 20% of them were active in at least one assay; those are over-represented in the sample as a whole. Calls of active or inactive are those of the source. The calls were made as follows: active = growth percent below 10; inactive = the rest.
Possible outcomes: active, inactive

compound	answer-label
CC(CCN1CCN(CCC(C)CC(C)(C)C)C1CC(C)CC(C)(C)C)CC(C)(C)C (stereo unspecified)	inactive
COC(=O)C(C)[C@H]1CC[C@@H]2[C@]1(C)CC=C1[C@]23C=C[C@]2(C[C@@H](OC(C)=O)CC[C@]12C)C(C(=O)OC)C3C(=O)OC (stereo partly specified)	inactive
CCOC(=O)c1ccc2n1CCCc1cnc(NC(C)=O)nc1-2	inactive
O=S(=O)(O)c1ccc2c(c1)Sc1cc(S(=O)(=O)O)ccc1O2	inactive
COc1cccc(CNC(=O)c2cccc(C3CC(=O)c4c(cc(OC)c(OC)c4OC)O3)c2)c1 (stereo unspecified)	inactive
CCN(CC)CCOC(=O)c1cccnc1	inactive
Ic1ccc(SSc2ccc(I)cc2)cc1	inactive
Cc1nc(NC(=S)Nc2ccc(F)cc2)sc1C(=O)NNC(=S)Nc1ccc(F)cc1	inactive
CCCCCC(=C/c1ccccc1)/C=N/N=C(N)N	active
CCC(C)CC(N)O (stereo unspecified)	inactive
C[C@]12CC[C@H]3[C@@H](CC[C@H]4C[C@@H](O)CC[C@@]43C)[C@@H]1CC(=O)C2	inactive
COc1ccc(C2=C/C(=C\c3ccc(Cl)cc3)C(=O)NN2C(=S)NN)cc1	inactive
N=C(N)c1ccc(-c2ccc(-c3ccc(Cl)cc3)s2)s1	active
COc1ccc(-c2nc(SCC(C)C)nc(Nc3ccccc3)c2C#N)cc1	inactive
CC#Cc1nc(Nc2cc(C)[nH]n2)c2ccccc2n1	active
Cc1c([C@H](C(Cl)Cl)[C@H](O)[C@H]2C[C@H](C)C(=O)O2)ccc2c1C(=O)[C@H]1[C@H]2C[C@@H](Br)[C@@]23O[C@@H](CO[C@H]2O)CC13C (stereo partly specified)	inactive

###

Tested on: BT-549 breast
Test: NCI-60 one-dose screen, 48 h (100 = growth as untreated, 0 = no growth, -100 = all killed)
Conditions: 10 µM unless noted
The panel holds about 83,000 compounds, 20% with a hit somewhere; the sample as a whole holds those more often.
Consider the following molecules and their measured growth readings.
readout-name: growth (%)

>>> df
                                   molecule  readout_name  readout_number
0      CCCCCCCCCCCCc1ccc([N+](CC)(CC)CC)cc1        growth            30.2
1              CCCCCCCCCCCCCCCCCCOP(=O)(O)O        growth             114
2  Nc1nc2c(c3cnccc13)C(c1cccc(Cl)c1)Cc1cnccc1-2 (centres undefined)        growth             -12
3  COc1cc2c(c(OC)c1OC)C(=O)CC(c1cccc(C(=O)Nc3cccc(Br)c3)c1)O2 (centres undefined)        growth              63
4  C[C@]12C=CC(=O)C=C1[C@@H](F)C[C@@H]1[C@@H]2[C@@H](O)C[C@@]2(C)[C@H]1CC[C@]2(O)C(=O)CO        growth            78.5
5                                 O=C1CCNC1        growth             105
6  CCCCCCNC(=O)Oc1ccc(/C(=C(/C)Cc2ccc(OC)cc2)c2ccc(OCCN3CCCCC3)cc2)cc1        growth            92.5
7  CSC1=Nc2c(c(C)c(-c3ccccc3)n2CCCCl)C2=NC(=O)CN12        growth            61.2
8  COC1(OC)N=C(N)C2(C#N)C3(C(=O)Nc4ccccc43)C12C#N (centres undefined)        growth            62.5

###

growth: recorded values
System: COLO 205 colon
Experiment: NCI-60 one-dose screen, 48 h (100 = growth as untreated, 0 = no growth, -100 = all killed)
Settings: 10 µM unless noted
Procedure: Cells are grown in 96 well plates and exposed to the test compound for 48 hours. Compounds are tested at a single concentration, which is 10^-5 M for most compounds. The reported endpoint is percent growth (GI% or GIPRCNT), where numbers from 0 - 100% represent growth inhibition, and numbers from -100% - 0 represent cell death. For example, a value of 40 represents 60% growth inhibition. A value of 0 means no net growth occurred over the course of the experiment. […]
This is part of a sample that, as a whole, favours compounds with a hit. Of some 83,000 tested, about 20% had one in any assay.
readout-name: growth (%)

>>> print(df.to_string())
                                    compound  readout_number
 0           CC(=O)CC(=O)OC/C=C(/C)CCC=C(C)C             109
 1  O=C(Nc1ccc(-n2cc(-c3ccncc3)c(-c3ccc(Cl)c(O)c3)n2)cc1)c1cc(C(F)(F)F)cc(C(F)(F)F)c1            70.1
 2  CCOC(=O)c1cc(-c2ccc(OC)cc2)[nH]c1NNC(=O)CCOC             109
 3  CCCCCCCCCCCCCCCCNC(=S)N/N=C/c1ccc(OC)cc1             115
 4  Cc1nnc(-c2cc3c(ccc4ccccc43)oc2=O)c2cn(-c3ccc(Cl)cc3)nc12             111
 5  COc1ccc(C2=NN(C(=O)c3cc(-c4ccc(C)cc4)nc4ccccc34)C(c3cc(-c4ccccc4)nn3-c3ccccc3)C2)cc1 (stereo unspecified)             106
 6       O=C(N/N=C/c1ccccc1Cl)c1cccc2ccccc12             114
 7             C/C(=N\Nc1ccc(Cl)cn1)c1ccccn1            9.59
 8      COc1ccc(Cn2cc3c(c2)-c2oncc2CC3)cc1OC           -18.2
 9                        CCCC[N+](C)(N)CCCC             122
10  COc1cc(-c2nn(-c3ccc(NC(=O)Nc4cc(C(F)(F)F)cc(C(F)(F)F)c4)cc3)cc2-c2ccncc2)ccc1Cl           -89.8
11      CCN(CC)CCNc1ncnc2c1cnn2-c1ccc(Cl)cc1            15.9
12         COc1cccc2c1nc1cccc(OC)c1[n+]2[O-]            77.9
13      Clc1ccc(N/N=C(/c2ccccc2)c2ccccn2)nc1              25
14   O=C(/C=C/c1c[nH]c2ccccc12)c1cc2ccccc2o1             130
15  O=C1/C(=N\c2cc(=O)[nH]n2S(=O)(=O)c2ccccc2)Nc2ccccc21             114
16  O=C(N/N=C/c1cc(Cl)ccc1O)C(=O)N/N=C/c1cc(Cl)ccc1O            75.2
17  COc1ccc(-c2nc(SCC(C)C)nc(Nc3ccc(C(=O)O)cc3)c2C#N)cc1            89.7
18        O=C(/C=C/c1ccc(Cl)cc1)c1ccc(Cl)cc1             113
19  CC(C)CCCCCOC(=O)c1ccccc1SSc1ccccc1C(=O)OCCCCCC(C)C             109
20                              CC(=O)O.[In]             112
21                  NC(N)=N/N=C/c1cccc(Br)c1            90.2
22  COCn1c(C(=O)OC)cc2oc(/C=C3/SC(=S)N(N)C3=O)cc21             110
23    COC(=O)C(N)CC(C)C (stereo unspecified)             114
24                       Cn1cnc2nc[nH]c2c1=S             116
25  COc1ccc(Cn2cc3c(c2-c2ccccc2)CCc2cnoc2-3)cc1OC            8.16
